Every entry's value here was drawn from patent US20230235054A1.

Molecular target: T1, cynoNectin4-mFc (cyno, UniProt A0A2K5WES1 32-349)
T1 construct: Immobilized on the SPR chip; also called cyanoNectin4; not shown: mFc (mouse Fc)
T1 sequence: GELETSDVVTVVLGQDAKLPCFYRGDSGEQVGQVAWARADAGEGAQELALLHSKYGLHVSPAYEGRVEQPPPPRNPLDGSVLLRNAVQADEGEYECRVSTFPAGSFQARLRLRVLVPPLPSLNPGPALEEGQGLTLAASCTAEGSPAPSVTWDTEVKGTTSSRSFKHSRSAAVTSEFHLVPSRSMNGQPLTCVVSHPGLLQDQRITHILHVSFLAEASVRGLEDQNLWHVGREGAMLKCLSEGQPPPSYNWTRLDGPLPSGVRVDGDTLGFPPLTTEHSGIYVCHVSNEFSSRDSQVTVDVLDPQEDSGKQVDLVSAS
Assay: SPR, cynoNectin4-mFc immobilized, pH 6.5
endpoint-label: koff (s⁻¹)
Record the value in s⁻¹, omitting the unit from your answer.

Input: For the binder BAP-143-06-33-16 (antibody, V domains shown, Used as a conjugate with a linker payload (CAB ADC)) VH: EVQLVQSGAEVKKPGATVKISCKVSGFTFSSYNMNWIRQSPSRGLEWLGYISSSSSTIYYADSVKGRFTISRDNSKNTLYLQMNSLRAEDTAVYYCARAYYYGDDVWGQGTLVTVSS VL: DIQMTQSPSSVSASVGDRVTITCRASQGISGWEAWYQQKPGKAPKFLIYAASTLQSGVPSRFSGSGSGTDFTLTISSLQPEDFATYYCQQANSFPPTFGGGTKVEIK , what koff is on record?
Output: 0.00026
